- System: NB6;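 also: growth inhibition of NB6 cells, read out by a cell viability assay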
- assayNotes: cells
- Type: functional, cell-based
- measurementSetup: Homo sapiens
- Description: SANGER: Inhibition of human NB6 cell growth in a cell viability assay.
parameterMeasured: IC50

In plain terms, Cc1nc(Nc2ncc(C(=O)Nc3c(C)cccc3Cl)s2)cc(N2CCN(CCO)CC2)n1 [DASATINIB] has a documented IC50 of > 1.28 µM

In plain terms, COc1cc(C)c(Sc2cnc(NC(=O)c3ccc(CNC(C)C(C)(C)C)cc3)s2)cc1C(=O)N1CCN(C(C)=O)CC1 (stereo not drawn) has a documented IC50 of > 10.2 µM

In plain terms, CCn1c(-c2nonc2N)nc2cnc(Oc3cccc(NC(=O)c4ccc(OCCN5CCOCC5)cc4)c3)cc21 [GSK-269962A] has a documented IC50 of 0.591 µM

In plain terms, O=c1cc(N2CCOCC2)oc2c(-c3cccc4c3sc3ccccc34)cccc12 has a documented IC50 of > 2 µM

In plain terms, C/C=C(/C)C(=O)O[C@H]1C(C)=C2[C@H]([C@@H]1OC(=O)CCCCCCC)[C@@](C)(OC(C)=O)C[C@H](OC(=O)CCC)[C@@]1(O)[C@H]2OC(=O)[C@@]1(C)O [THAPSIGARGIN] has a documented IC50 of 0.00458 µM

In plain terms, CO[C@@]12[C@H](COC(N)=O)C3=C(C(=O)C(C)=C(N)C3=O)N1C[C@@H]1N[C@@H]12 [MITOMYCIN] has a documented IC50 of 2.23 µM

In plain terms, Cn1c(=O)n(-c2ccc(C(C)(C)C#N)cc2)c2c3cc(-c4cnc5ccccc5c4)ccc3ncc21 [DACTOLISIB] has a documented IC50 of 0.397 µM

In plain terms, Cc1[nH]c(/C=C2\C(=O)Nc3ccc(S(=O)(=O)Cc4c(Cl)cccc4Cl)cc32)c(C)c1C(=O)N1CCC[C@@H]1CN1CCCC1 [PHA-665752] has a documented IC50 of > 2 µM

====

- Tested on: A 172;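 also: growth inhibition of A172 cells, measured with a cell viability readout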
- assayNotes: cells
- Assay type: functional, cell-based
- measurementSetup: Homo sapiens
- Description: SANGER: Inhibition of human A172 cell growth in a cell viability assay.
parameterMeasured: pIC50
# pIC50: negative log10 of molar concentration; output just the value

In plain terms, CO[C@@]12[C@H](COC(N)=O)C3=C(C(=O)C(C)=C(N)C3=O)N1C[C@@H]1N[C@@H]12 has a documented pIC50 of 6.27

====

Provide the recorded IC50 for the entries that follow.
- Tested on: 647-V;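 also: growth inhibition of 647-V cells, read out with a cell viability assay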
- assayNotes: cells
- Type: functional, cell-based
- measurementSetup: Homo sapiens
- Description: SANGER: Inhibition of human 647-V cell growth in a cell viability assay.
Use nM as the unit, but write only the number.

647-V IC50 of C/C=C(/C)C(=O)O[C@H]1C(C)=C2[C@H]([C@@H]1OC(=O)CCCCCCC)[C@@](C)(OC(C)=O)C[C@H](OC(=O)CCC)[C@@]1(O)[C@H]2OC(=O)[C@@]1(C)O is 13.7

647-V IC50 of Fc1cc(-c2cc[nH]/c(=N/c3ccc(-n4cnc(N5CCOCC5)n4)cc3)n2)cc(N2CCOCC2)c1 is 401

====

- Test system: MEL-HO
- assayNotes: cells
- Type: functional, cell-based
- measurementSetup: Homo sapiens
- Description: SANGER: Inhibition of human MEL-HO cell growth in a cell viability assay.
parameterMeasured: pIC50
# pIC50: negative log10 of molar concentration; output just the value

In plain terms, CC(C)=CC[C@@H](O)C1=CC(=O)c2c(O)ccc(O)c2C1=O has a documented pIC50 of 6.83

In plain terms, CCNC(=O)c1noc(-c2cc(C(C)C)c(O)cc2O)c1-c1ccc(CN2CCOCC2)cc1 has a documented pIC50 of 7.78

In plain terms, CC[C@]1(O)C[C@@H]2CN(CCc3c([nH]c4ccccc34)[C@@](C(=O)OC)(c3cc4c(cc3OC)N(C)[C@H]3[C@@](O)(C(=O)OC)[C@H](OC(C)=O)[C@]5(CC)C=CCN6CC[C@]43[C@@H]65)C2)C1 has a documented pIC50 of 7.27

In plain terms, CO[C@@]12[C@H](COC(N)=O)C3=C(C(=O)C(C)=C(N)C3=O)N1C[C@@H]1N[C@@H]12 has a documented pIC50 of 7.40

====

- Tested on: IM-9
- assayNotes: SANGER: Inhibition of human IM-9 cell growth in a cell viability assay.
- Format: functional, cell-based
Provide the recorded pIC50 for the entries that follow.
# pIC50: negative log10 of molar concentration; output just the value

In plain terms, CO[C@@]12[C@H](COC(N)=O)C3=C(C(=O)C(C)=C(N)C3=O)N1C[C@@H]1N[C@@H]12 has a documented pIC50 of 7.25

In plain terms, CC(C)=CC[C@@H](O)C1=CC(=O)c2c(O)ccc(O)c2C1=O has a documented pIC50 of 5.47

In plain terms, Fc1cc(-c2cc[nH]/c(=N/c3ccc(-n4cnc(N5CCOCC5)n4)cc3)n2)cc(N2CCOCC2)c1 has a documented pIC50 of 5.48

====

Provide the recorded IC50 for the entries that follow.
- Test system: HCC1954
- assayNotes: cells
- Type: functional, cell-based
- measurementSetup: Homo sapiens
- Description: SANGER: Inhibition of human HCC1954 cell growth in a cell viability assay.

In plain terms, C[C@]12O[C@H](C[C@]1(O)CO)n1c3ccccc3c3c4c(c5c6ccccc6n2c5c31)CNC4=O [LESTAURTINIB] has a documented IC50 of > 2 µM

In plain terms, Cn1c(=O)n(-c2ccc(C(C)(C)C#N)cc2)c2c3cc(-c4cnc5ccccc5c4)ccc3ncc21 [DACTOLISIB] has a documented IC50 of 0.513 µM

In plain terms, CC(O)(CS(=O)(=O)c1ccc(F)cc1)C(=O)Nc1ccc(C#N)c(C(F)(F)F)c1 (stereo unspecified) [BICALUTAMIDE] has a documented IC50 of > 1.02 µM

In plain terms, NC(=O)c1ncn([C@@H]2O[C@H](COP(=O)(O)O)[C@@H](O)[C@H]2O)c1N has a documented IC50 of > 2000 µM

In plain terms, CC[C@]1(O)C[C@@H]2CN(CCc3c([nH]c4ccccc34)[C@@](C(=O)OC)(c3cc4c(cc3OC)N(C)[C@H]3[C@@](O)(C(=O)OC)[C@H](OC(C)=O)[C@]5(CC)C=CCN6CC[C@]43[C@@H]65)C2)C1 [VINBLASTINE] has a documented IC50 of > 0.1 µM

In plain terms, CC(C)=CC[C@@H](O)C1=CC(=O)c2c(O)ccc(O)c2C1=O [SHIKONIN] has a documented IC50 of 0.902 µM

====

- Test system: NCI-H82
- assayNotes: cells
- Type: functional, cell-based
- measurementSetup: Homo sapiens
- Description: SANGER: Inhibition of human NCI-H82 cell growth in a cell viability assay.
parameterMeasured: IC50

NCI-H82 IC50 of N#C/C(=C1/Nc2ccccc2S1)c1ccnc(NCCc2cccnc2)n1 is > 8 µM

NCI-H82 IC50 of Cc1nc(Nc2ncc(C(=O)Nc3c(C)cccc3Cl)s2)cc(N2CCN(CCO)CC2)n1 [DASATINIB] is > 1.28 µM

NCI-H82 IC50 of O=c1[nH]c2ccccc2n1C1CCN(Cc2ccc(-c3nc4cc5[nH]cnc5cc4nc3-c3ccccc3)cc2)CC1 is > 2.56 µM

NCI-H82 IC50 of CCn1c(-c2nonc2N)nc2cnc(Oc3cccc(NC(=O)c4ccc(OCCN5CCOCC5)cc4)c3)cc21 [GSK-269962A] is > 2.5 µM

NCI-H82 IC50 of C[C@]1(c2nc3c(C(N)=O)cccc3[nH]2)CCCN1 [VELIPARIB] is > 5 µM

NCI-H82 IC50 of Cc1n[nH]c2ccc(-c3cncc(OC[C@@H](N)Cc4c[nH]c5ccccc45)c3)cc12 [A-443654] is 0.164 µM

NCI-H82 IC50 of NC(=O)c1ncn([C@@H]2O[C@H](COP(=O)(O)O)[C@@H](O)[C@H]2O)c1N is 993 µM

NCI-H82 IC50 of CO[C@@]12[C@H](COC(N)=O)C3=C(C(=O)C(C)=C(N)C3=O)N1C[C@@H]1N[C@@H]12 [MITOMYCIN] is 2.8 µM

====

- Tested on: 697
- assayNotes: cells
- Type: functional, cell-based
- measurementSetup: Homo sapiens
- Description: SANGER: Inhibition of human 697 cell growth in a cell viability assay.
parameterMeasured: pIC50
# pIC50: negative log10 of molar concentration; output just the value

In plain terms, Fc1cc(-c2cc[nH]/c(=N/c3ccc(-n4cnc(N5CCOCC5)n4)cc3)n2)cc(N2CCOCC2)c1 has a documented pIC50 of 6.43

In plain terms, CCCS(=O)(=O)Nc1ccc(F)c(C(=O)c2c[nH]c3ncc(Cl)cc23)c1F [PLX-4720] has a documented pIC50 of 5.45

In plain terms, CC[C@@]1(O)C(=O)OCc2c1cc1n(c2=O)Cc2cc3ccccc3nc2-1 [CAMPTOTHECIN] has a documented pIC50 of 8.69

In plain terms, CCn1c(-c2nonc2N)nc2cnc(Oc3cccc(NC(=O)c4ccc(OCCN5CCOCC5)cc4)c3)cc21 [GSK-269962A] has a documented pIC50 of 6.52

====

Provide the recorded pIC50 for the entries that follow.
- Test system: WSU-NHL
- assayNotes: cells
- Type: functional, cell-based
- measurementSetup: Homo sapiens
- Description: SANGER: Inhibition of human WSU-NHL cell growth in a cell viability assay.
pIC50: −log10 of the molar value.

In plain terms, COc1cc(C)c(Sc2cnc(NC(=O)c3ccc(CNC(C)C(C)(C)C)cc3)s2)cc1C(=O)N1CCN(C(C)=O)CC1 (configuration not stated) has a documented pIC50 of < 4.99

In plain terms, Fc1cc(-c2cc[nH]/c(=N/c3ccc(-n4cnc(N5CCOCC5)n4)cc3)n2)cc(N2CCOCC2)c1 has a documented pIC50 of 6.23

In plain terms, CC(C)=CC[C@@H](O)C1=CC(=O)c2c(O)ccc(O)c2C1=O [SHIKONIN] has a documented pIC50 of 6.58

In plain terms, N#C/C(=C1/Nc2ccccc2S1)c1ccnc(NCCc2cccnc2)n1 has a documented pIC50 of < 5.10

In plain terms, O=c1[nH]c2ccccc2n1C1CCN(Cc2ccc(-c3nc4cc5[nH]cnc5cc4nc3-c3ccccc3)cc2)CC1 has a documented pIC50 of < 5.59

In plain terms, Cc1ccc(NC(=O)c2cccc(C(C)(C)C#N)c2)cc1Nc1ccc2ncn(C)c(=O)c2c1 has a documented pIC50 of < 5.40

In plain terms, Cc1n[nH]c2ccc(-c3cncc(OC[C@@H](N)Cc4c[nH]c5ccccc45)c3)cc12 [A-443654] has a documented pIC50 of < 5.99

Origin of measurements: ChEMBL document CHEMBL1201861
